Suppression values by entry
# Tested on: Plasmodium falciparum
# protocol description: In vitro anti-MDR effect in chloroquine and mefloquine resistant TM91C235 cell lines at 50 ng/ml concentration
# Format: functional
Could you give me the number in %? Just the number is fine.

Consider the following illustrative entries.
CN(C)CCCCN1c2ccccc2CCc2ccccc21: 59
CCN(CC)CCCCN1c2ccccc2CCc2ccccc21: 62
CN(C)CCCCN1c2ccccc2Sc2ccccc21: 17
c1ccc(CN(CCCCN2c3ccccc3Sc3ccccc32)Cc2ccccc2)cc1: 7

Query: # get_value(readout='Suppression', item= "c1ccc2c(c1)CCc1ccccc1N2CCCCN1CCCC1" )
Response: 58

Query: Subsequent entry: "c1ccc(CN(CCCCN2c3ccccc3CCc3ccccc32)Cc2ccccc2)cc1"
Response: 11

Query: Subsequent entry: "CN(CCCCN1c2ccccc2CCc2ccccc21)Cc1ccccc1"
Response: 30

Query: Subsequent entry: "c1ccc2c(c1)Sc1ccccc1N2CCCCN1CCCC1"
Response: 38

Query: Subsequent entry: "CCN(CC)CCCCN1c2ccccc2Sc2ccccc21"
Response: 26

Query: Subsequent entry: "CN(CCCCN1c2ccccc2Sc2ccccc21)Cc1ccccc1"
Response: 13
